System: MDA-MB-231
Experiment: NCI tumour cell line growth inhibition, 48 h
Counter-ions that a name gives are not always drawn. Calls of active or inactive are those of the source. Rule as the data show it: active = GI50 up to about 1.1 µM and inactive = higher.
Property measured: GI50

| Molecule | Recorded measurement |
| --- | --- |
| CC1(C)C(CBr)=[N+]([O-])C(C)(C)N1O | > 6.76 µM (inactive) |
| CC(=O)C(CN1CCOCC1)C(c1ccccc1)c1c(O)c2ccccc2oc1=O (stereo not given) | 83.9 µM (inactive) |
| CCCC(=O)Nc1cc([N+](=O)[O-])c([N+](=O)[O-])cc1OC | 19.1 µM (inactive) |
| CN1CCC(CN2c3ccccc3Sc3ccccc32)C1 (stereo not given) [METHDILAZINE HYDROCHLORIDE] | 14 µM (inactive) |

Now for the molecule whose GI50 we want.
Which GI50 value is on record for CCOC(=O)C(Cl)(NC(=O)c1ccc(F)cc1)C(F)(F)F (stereo not given) ? > 100 µM (inactive)

====

System: NCI-H522
Experiment: NCI tumour cell line growth inhibition, 48 h
Active and inactive are the calls of the source. No stated cut-off is given here; in the data, active = GI50 up to about 1.1 µM and inactive = higher.
Property measured: GI50

# count of solved cases: 3
| Molecule | Test target | Recorded measurement |
| --- | --- | --- |
| O=C(CC(C(=O)c1cccs1)c1ccsc1)c1cccs1 (stereo not drawn) | NCI-H522 | 54.2 µM (inactive) |
| CCn1c(=O)c2ccccc2n2c(=O)c3cc4ccccc4cc3nc12 | NCI-H522 | 98.9 µM (inactive) |
| CC12CCC(CC1(Cl)Cl)C2 (stereo not drawn) | NCI-H522 | > 100 µM (inactive) |

Report GI50 for each item below.
1. CC(=O)SC(C[N+](=O)[O-])c1ccccc1 (stereo not drawn)
2. NCCCSCC(=O)O
3. COc1cccc2c1CCc1c(-c3ccc(F)cc3)cc(-c3ccc4ccccc4n3)nc1-2

1: 16.4 µM (inactive); 2: > 100 µM (inactive); 3: > 100 µM (inactive)

Report GI50 for each item below.
1. Cc1cc2c(=O)cc(-c3ccc(Cl)cc3Cl)oc2c(C(=O)O)c1C
2. CC(Oc1ccccc1Cl)C(=O)NN1C(=O)CC(=O)NC1=S (stereo not drawn)
3. Cc1ccc(NP(=O)(Oc2ccccc2)N(CCCl)CCCl)cc1 (stereo not drawn)
4. CC(=O)C(CN1CCOCC1)C(c1ccccc1)c1c(O)c2ccccc2oc1=O (stereo not drawn)

1. 25.3 µM (inactive)
2. > 100 µM (inactive)
3. > 100 µM (inactive)
4. > 100 µM (inactive)

Report GI50 for each item below.
1. Cc1cc(C)c(NC(=S)NC(=O)c2ccccc2)cc1C
2. CCN(CC)CCCNc1nc2ccccc2[n+]([O-])n1
3. COc1ccc(N2C(Cl)C(=O)C2c2c[nH]c3ccccc23)cc1 (stereo not drawn)
4. CN[C@@H](C)[C@H](N)c1ccccc1
5. CSc1nc2c(ncn2C2OCC(O)C(O)C2O)c(=O)[nH]1 (stereo not drawn)
6. COc1ccc(OC)c2c1C[C@@H]1C(C#N)N3[C@H](Cc4c(OC)ccc(OC)c4[C@@H]3C)C(=O)N1[C@H]2C (stereo partly drawn)
7. Cc1cccc(/C=C2\CCCCCC2=O)c1
8. CCCCC(=O)Nc1ccc2c(C)cc(-c3ccc(-c4cc(-c5ccc(C)cc5)cc(-c5ccc(-c6cc(C)c7ccc(NC(=O)CCCC)nc7n6)cc5)n4)cc3)nc2n1

1: > 100 µM (inactive); 2: > 100 µM (inactive); 3: > 100 µM (inactive); 4: > 100 µM (inactive); 5: > 100 µM (inactive); 6: 1.68 µM (inactive); 7: > 100 µM (inactive); 8: > 100 µM (inactive)

Report GI50 for each item below.
1. CCC(Oc1ccc(OC)c2c1C(=O)CCC2)C(=O)O (stereo not drawn)
2. O=C(NC1(C(=O)O)CCCC1)c1ccccc1
3. O=C(CSCC(=O)N/N=C/c1cccc(O)c1)N/N=C/c1cccc(O)c1
4. CNC(=O)c1cc2nc3ccccc3c(=O)n2c2ccccc12
5. CCOC(=O)C(Cl)(NC(=O)c1ccc(F)cc1)C(F)(F)F (stereo not drawn)

> 100 µM (inactive)
> 100 µM (inactive)
> 100 µM (inactive)
> 10 µM (inactive)
> 100 µM (inactive)
